Every entry's value here was drawn from paper PMC12621043.

# experimental_target: EPHA2 (EPHA2A) (Homo sapiens, UniProt P29317)
# Construct: purchased in-house DSF kinase panel (SGC-style construct names; the trailing letter is the construct ID)
# Sequence (P29317 596-900): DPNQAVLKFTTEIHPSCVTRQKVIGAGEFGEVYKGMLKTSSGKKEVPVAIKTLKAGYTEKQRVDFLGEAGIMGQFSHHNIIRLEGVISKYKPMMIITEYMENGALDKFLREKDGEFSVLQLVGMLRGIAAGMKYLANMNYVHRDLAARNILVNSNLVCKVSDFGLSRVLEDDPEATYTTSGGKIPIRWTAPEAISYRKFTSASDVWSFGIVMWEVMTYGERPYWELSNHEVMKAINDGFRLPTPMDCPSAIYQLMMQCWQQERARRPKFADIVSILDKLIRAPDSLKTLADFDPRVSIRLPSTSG
# protocol_description: DSF Tm panel
# Format: binding
# run_conditions: 10 μM compound
measurement_name: ΔTm at 10 µM (°C)

Worked cases, answers included:
CN1CCN(C(=O)Nc2ccc3cc2OCCOCCNc2ccn4ncc-3c4n2)CC1 :: 0.6
O=C(NCc1ccc(C(F)(F)F)cc1)Nc1ccc2cc1OCCOCCNc1ccn3ncc-2c3n1 :: 0.1
COc1cccc(CNC(=O)Nc2ccc3cc2OCCOCCNc2ccn4ncc-3c4n2)c1 :: 0.4
Cc1ccc(F)cc1CNC(=O)Nc1ccc2cc1OCCOCCNc1ccn3ncc-2c3n1 :: 0.3
O=C(NCc1ccc(Cl)cc1Cl)Nc1ccc2cc1OCCOCCNc1ccn3ncc-2c3n1 :: 0.4
O=C(NCc1ccc(Cl)cc1F)Nc1ccc2cc1OCCOCCNc1ccn3ncc-2c3n1 :: 0.5

(A) O=C(NCc1ccccc1)Nc1ccc2cc1OCCOCCNc1ccn3ncc-2c3n1
(B) COc1cc(CNC(=O)Nc2ccc3cc2OCCOCCNc2ccn4ncc-3c4n2)ccc1F
(C) O=C(NCc1ccc(Cl)cc1)Nc1ccc2cc1OCCOCCNc1ccn3ncc-2c3n1
(D) C[C@H](NC(=O)Nc1ccc2cc1OCCOCCNc1ccn3ncc-2c3n1)c1ccccc1
// ranking: key=ΔTm at 10 µM, reverse=True Would you mind listing the labels in the order asked for?
A, B, D, C

---

# experimental_target: AURKBA (Homo sapiens, UniProt Q96GD4)
# Construct: purchased in-house DSF kinase panel (SGC-style construct names; the trailing letter is the construct ID)
# Sequence (Q96GD4 whole entry): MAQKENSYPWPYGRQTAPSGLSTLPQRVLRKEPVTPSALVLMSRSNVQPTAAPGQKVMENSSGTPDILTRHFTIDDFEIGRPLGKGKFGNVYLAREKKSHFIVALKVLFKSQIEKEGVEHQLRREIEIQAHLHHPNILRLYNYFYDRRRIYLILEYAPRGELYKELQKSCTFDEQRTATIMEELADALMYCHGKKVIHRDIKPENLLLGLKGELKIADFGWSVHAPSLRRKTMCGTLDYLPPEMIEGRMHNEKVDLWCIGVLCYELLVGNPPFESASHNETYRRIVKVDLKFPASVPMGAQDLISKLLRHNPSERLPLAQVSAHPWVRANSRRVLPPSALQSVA
# protocol_description: DSF Tm panel
# Format: binding
# run_conditions: 10 μM compound
measurement_name: ΔTm at 10 µM (°C)

C[C@H](NC(=O)Nc1ccc2cc1OCCOCCNc1ccn3ncc-2c3n1)c1ccccc1 :: 7.1
COc1ccc(CNC(=O)Nc2ccc3cc2OCCOCCNc2ccn4ncc-3c4n2)cc1 :: 7.6
COc1ccc(CNC(=O)Nc2ccc3cc2OCCOCCNc2ccn4ncc-3c4n2)cc1F :: 7.9
COc1ccccc1CNC(=O)Nc1ccc2cc1OCCOCCNc1ccn3ncc-2c3n1 :: 6.6
O=C(NCc1ccccc1C(F)(F)F)Nc1ccc2cc1OCCOCCNc1ccn3ncc-2c3n1 :: 8.6
O=C(NCc1ccc(C(F)(F)F)cc1)Nc1ccc2cc1OCCOCCNc1ccn3ncc-2c3n1 :: 9
Cc1ccc(F)cc1CNC(=O)Nc1ccc2cc1OCCOCCNc1ccn3ncc-2c3n1 :: 7.8
COc1cccc(CNC(=O)Nc2ccc3cc2OCCOCCNc2ccn4ncc-3c4n2)c1 :: 7.3
COc1cc(CNC(=O)Nc2ccc3cc2OCCOCCNc2ccn4ncc-3c4n2)ccc1F :: 9.1
Cc1cc(Br)ccc1CNC(=O)Nc1ccc2cc1OCCOCCNc1ccn3ncc-2c3n1 :: 7.7

---

# experimental_target: CASKA (Homo sapiens, UniProt O14936)
# Construct: purchased in-house DSF kinase panel (SGC-style construct names; the trailing letter is the construct ID)
# Sequence (O14936 12-276): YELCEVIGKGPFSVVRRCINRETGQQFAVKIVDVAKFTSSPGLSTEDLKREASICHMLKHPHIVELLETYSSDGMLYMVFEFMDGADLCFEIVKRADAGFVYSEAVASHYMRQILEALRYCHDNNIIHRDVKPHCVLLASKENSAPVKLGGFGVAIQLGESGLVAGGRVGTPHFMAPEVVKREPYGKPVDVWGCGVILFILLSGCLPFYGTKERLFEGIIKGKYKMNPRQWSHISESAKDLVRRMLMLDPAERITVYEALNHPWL
# protocol_description: DSF Tm panel
# Format: binding
# run_conditions: 10 μM compound
measurement_name: ΔTm at 10 µM (°C)

Cc1cc(Br)ccc1CNC(=O)Nc1ccc2cc1OCCOCCNc1ccn3ncc-2c3n1 :: 0.6
COc1ccccc1CNC(=O)Nc1ccc2cc1OCCOCCNc1ccn3ncc-2c3n1 :: 1.1
Cc1ccc(F)cc1CNC(=O)Nc1ccc2cc1OCCOCCNc1ccn3ncc-2c3n1 :: 1.2
CN1CCN(C(=O)Nc2ccc3cc2OCCOCCNc2ccn4ncc-3c4n2)CC1 :: 0
O=C(NCc1ccc(Cl)cc1F)Nc1ccc2cc1OCCOCCNc1ccn3ncc-2c3n1 :: 2.7

(1) O=C(NCc1ccccc1C(F)(F)F)Nc1ccc2cc1OCCOCCNc1ccn3ncc-2c3n1
(2) Cc1cc(Cl)ccc1CNC(=O)Nc1ccc2cc1OCCOCCNc1ccn3ncc-2c3n1
Endpoint returns the identifier whose ΔTm at 10 µM is numerically larger, either 1 or 2 . API: response body contains the label of the selected item.
2
(2: 2.5 °C, 1: 1.6 °C)

---

# experimental_target: BMP2KA (Homo sapiens)
# Construct: purchased in-house DSF kinase panel (SGC-style construct names; the trailing letter is the construct ID)
# Sequence (Q9NSY1 38-345): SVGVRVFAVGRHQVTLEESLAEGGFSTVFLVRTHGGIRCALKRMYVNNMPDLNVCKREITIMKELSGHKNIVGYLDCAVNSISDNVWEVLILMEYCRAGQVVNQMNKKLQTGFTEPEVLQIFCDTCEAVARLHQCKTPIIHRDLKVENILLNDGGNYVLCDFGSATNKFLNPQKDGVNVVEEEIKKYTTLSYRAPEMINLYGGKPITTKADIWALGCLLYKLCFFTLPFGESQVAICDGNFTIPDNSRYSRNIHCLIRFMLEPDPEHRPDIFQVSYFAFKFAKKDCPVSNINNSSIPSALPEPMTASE
# protocol_description: DSF Tm panel
# Type: binding
# run_conditions: 10 μM compound
measurement_name: ΔTm at 10 µM (°C)

O=C(NCc1ccccc1)Nc1ccc2cc1OCCOCCNc1ccn3ncc-2c3n1 :: 12.2

(a) O=C(NCc1ccccc1C(F)(F)F)Nc1ccc2cc1OCCOCCNc1ccn3ncc-2c3n1
(b) COc1ccc(CNC(=O)Nc2ccc3cc2OCCOCCNc2ccn4ncc-3c4n2)cc1F
Which item exceeds the other in ΔTm at 10 µM, a or b ? Mark your selection by writing its label.
b

---

# experimental_target: DYRK2A (Homo sapiens)
# Construct: purchased in-house DSF kinase panel (SGC-style construct names; the trailing letter is the construct ID)
# Sequence (Q92630 whole entry): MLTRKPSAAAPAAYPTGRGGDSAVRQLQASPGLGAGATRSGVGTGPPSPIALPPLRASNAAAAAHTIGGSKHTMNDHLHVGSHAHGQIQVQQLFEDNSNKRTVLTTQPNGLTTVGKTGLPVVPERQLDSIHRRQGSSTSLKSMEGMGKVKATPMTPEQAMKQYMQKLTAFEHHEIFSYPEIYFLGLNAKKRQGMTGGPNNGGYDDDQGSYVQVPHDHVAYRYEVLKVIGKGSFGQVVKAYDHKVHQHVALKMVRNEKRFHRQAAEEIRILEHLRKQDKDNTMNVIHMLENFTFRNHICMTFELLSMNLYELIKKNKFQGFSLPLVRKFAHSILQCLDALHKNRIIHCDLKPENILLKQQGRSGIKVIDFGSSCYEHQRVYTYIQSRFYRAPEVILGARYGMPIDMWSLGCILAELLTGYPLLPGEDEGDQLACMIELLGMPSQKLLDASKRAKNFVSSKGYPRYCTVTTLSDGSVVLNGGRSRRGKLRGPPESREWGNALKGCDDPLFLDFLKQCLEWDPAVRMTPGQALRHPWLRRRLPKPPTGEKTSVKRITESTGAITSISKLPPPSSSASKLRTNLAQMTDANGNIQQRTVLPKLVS
# protocol_description: DSF Tm panel
# Assay type: binding
# run_conditions: 10 μM compound
measurement_name: ΔTm at 10 µM (°C)

Use these answered entries as a reference point.
COc1cccc(CNC(=O)Nc2ccc3cc2OCCOCCNc2ccn4ncc-3c4n2)c1 :: 3.1
O=C(NCc1ccc(C(F)(F)F)cc1)Nc1ccc2cc1OCCOCCNc1ccn3ncc-2c3n1 :: 1.2
C[C@H](NC(=O)Nc1ccc2cc1OCCOCCNc1ccn3ncc-2c3n1)c1ccccc1 :: 4.3

(I) COc1ccccc1CNC(=O)Nc1ccc2cc1OCCOCCNc1ccn3ncc-2c3n1
(II) O=C(NCc1ccccc1C(F)(F)F)Nc1ccc2cc1OCCOCCNc1ccn3ncc-2c3n1
Of the two listed items, I and II , which carries the larger ΔTm at 10 µM figure? Reply with the label of the item you choose.
I

(1) O=C(NCc1ccccc1Cl)Nc1ccc2cc1OCCOCCNc1ccn3ncc-2c3n1
(2) CN1CCN(C(=O)Nc2ccc3cc2OCCOCCNc2ccn4ncc-3c4n2)CC1
(3) O=C(NCc1ccc(Cl)cc1)Nc1ccc2cc1OCCOCCNc1ccn3ncc-2c3n1
# rank_down: sort by ΔTm at 10 µM, max first Quick reminder: the answer is the labels in the order asked.
2, 1, 3

(a) COc1ccc(CNC(=O)Nc2ccc3cc2OCCOCCNc2ccn4ncc-3c4n2)cc1F
(b) Cc1cc(Cl)ccc1CNC(=O)Nc1ccc2cc1OCCOCCNc1ccn3ncc-2c3n1
Exercise: compare a and b ; which one has the greater ΔTm at 10 µM? I would appreciate it if you answered with the label of your choice.
a

---

# experimental_target: MST3A (Homo sapiens)
# Construct: purchased in-house DSF kinase panel (SGC-style construct names; the trailing letter is the construct ID)
# Sequence (Q9Y6E0 whole entry): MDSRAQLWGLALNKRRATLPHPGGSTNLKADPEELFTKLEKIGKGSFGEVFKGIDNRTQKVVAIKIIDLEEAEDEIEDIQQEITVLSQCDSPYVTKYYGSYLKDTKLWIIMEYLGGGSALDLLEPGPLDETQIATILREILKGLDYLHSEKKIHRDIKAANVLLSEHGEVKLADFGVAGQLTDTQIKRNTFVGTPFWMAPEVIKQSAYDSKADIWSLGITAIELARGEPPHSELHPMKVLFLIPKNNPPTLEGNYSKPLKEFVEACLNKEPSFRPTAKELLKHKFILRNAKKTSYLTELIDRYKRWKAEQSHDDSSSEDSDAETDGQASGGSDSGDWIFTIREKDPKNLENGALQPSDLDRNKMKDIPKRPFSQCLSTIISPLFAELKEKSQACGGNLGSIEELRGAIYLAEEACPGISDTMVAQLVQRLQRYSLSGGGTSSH
# protocol_description: DSF Tm panel
# Assay type: binding
# run_conditions: 10 μM compound
measurement_name: ΔTm at 10 µM (°C)

Cc1cc(Br)ccc1CNC(=O)Nc1ccc2cc1OCCOCCNc1ccn3ncc-2c3n1 [compound 24] :: -4.3
COc1ccc(CNC(=O)Nc2ccc3cc2OCCOCCNc2ccn4ncc-3c4n2)cc1 [compound 31] :: -5.3
Cc1ccc(F)cc1CNC(=O)Nc1ccc2cc1OCCOCCNc1ccn3ncc-2c3n1 [compound 26] :: -2

(1) COc1cc(CNC(=O)Nc2ccc3cc2OCCOCCNc2ccn4ncc-3c4n2)ccc1F [compound 33]
(2) COc1ccccc1CNC(=O)Nc1ccc2cc1OCCOCCNc1ccn3ncc-2c3n1 [compound 29]
(3) O=C(NCc1ccccc1)Nc1ccc2cc1OCCOCCNc1ccn3ncc-2c3n1 [compound 16]
(4) O=C(NCc1ccc(Cl)cc1Cl)Nc1ccc2cc1OCCOCCNc1ccn3ncc-2c3n1 [compound 20]
(5) O=C(NCc1cccc(Cl)c1)Nc1ccc2cc1OCCOCCNc1ccn3ncc-2c3n1 [compound 18]
Provide the items ranked by increasing ΔTm at 10 µM. Rank them, then answer with their labels in that order.
2, 1, 4, 5, 3

---

# experimental_target: FESA (Homo sapiens, UniProt P07332)
# Construct: purchased in-house DSF kinase panel (SGC-style construct names; the trailing letter is the construct ID)
# Sequence (P07332 whole entry): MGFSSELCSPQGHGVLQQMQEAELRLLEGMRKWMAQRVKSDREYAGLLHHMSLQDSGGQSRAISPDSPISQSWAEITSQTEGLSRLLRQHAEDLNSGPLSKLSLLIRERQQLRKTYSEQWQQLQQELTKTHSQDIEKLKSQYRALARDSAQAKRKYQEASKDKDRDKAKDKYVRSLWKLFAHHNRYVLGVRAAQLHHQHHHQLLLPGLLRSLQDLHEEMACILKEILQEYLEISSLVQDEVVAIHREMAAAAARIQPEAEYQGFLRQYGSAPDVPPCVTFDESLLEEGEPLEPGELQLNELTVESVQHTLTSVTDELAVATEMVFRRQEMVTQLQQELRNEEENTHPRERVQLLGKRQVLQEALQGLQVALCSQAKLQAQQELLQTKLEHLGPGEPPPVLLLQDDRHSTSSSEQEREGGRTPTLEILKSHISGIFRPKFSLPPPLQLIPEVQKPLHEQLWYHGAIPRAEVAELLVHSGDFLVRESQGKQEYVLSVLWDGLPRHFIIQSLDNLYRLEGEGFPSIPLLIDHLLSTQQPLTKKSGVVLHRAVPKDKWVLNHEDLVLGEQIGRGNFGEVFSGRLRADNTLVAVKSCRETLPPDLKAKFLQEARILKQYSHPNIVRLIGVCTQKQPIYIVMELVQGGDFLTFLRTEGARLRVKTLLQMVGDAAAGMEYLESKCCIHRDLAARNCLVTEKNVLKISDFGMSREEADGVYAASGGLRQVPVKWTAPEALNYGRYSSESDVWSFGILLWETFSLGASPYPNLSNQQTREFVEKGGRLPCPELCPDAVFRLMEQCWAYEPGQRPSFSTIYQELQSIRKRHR
# protocol_description: DSF Tm panel
# Type: binding
# run_conditions: 10 μM compound
measurement_name: ΔTm at 10 µM (°C)

O=C(NCc1ccc(C(F)(F)F)cc1)Nc1ccc2cc1OCCOCCNc1ccn3ncc-2c3n1 [compound 28] :: 1
C[C@H](NC(=O)Nc1ccc2cc1OCCOCCNc1ccn3ncc-2c3n1)c1ccccc1 [compound 34] :: 1.3
COc1cc(CNC(=O)Nc2ccc3cc2OCCOCCNc2ccn4ncc-3c4n2)ccc1F [compound 33] :: 0.5
Cc1ccc(F)cc1CNC(=O)Nc1ccc2cc1OCCOCCNc1ccn3ncc-2c3n1 [compound 26] :: 0.3
COc1ccc(CNC(=O)Nc2ccc3cc2OCCOCCNc2ccn4ncc-3c4n2)cc1 [compound 31] :: 0.8

(a) COc1ccccc1CNC(=O)Nc1ccc2cc1OCCOCCNc1ccn3ncc-2c3n1 [compound 29]
(b) Cc1cc(Br)ccc1CNC(=O)Nc1ccc2cc1OCCOCCNc1ccn3ncc-2c3n1 [compound 24]
(c) COc1cccc(CNC(=O)Nc2ccc3cc2OCCOCCNc2ccn4ncc-3c4n2)c1 [compound 30]
List from greatest to least ΔTm at 10 µM. Give your ranking as a list of the labels in the requested order.
a, c, b
